Recorded TGI, one value per entry.
System: COLO 205 colon
Experiment: NCI tumour cell line growth inhibition, 48 h
experimental-readout: TGI (µM)

>>> df
                                   molecule  qual  observed
0  C=CCOC(=O)C[C@H](NC(=O)[C@H](Cc1ccc(O)cc1)NCC(F)(F)F)C(=O)OCC=C     >       100
1    O=c1ccc2nc(C(F)(F)F)nn(-c3ccccc3)c-2c1     =      5.77
2             CCCc1[nH]nc(C(N)=O)c1N=NN(C)C     >       100
3  CCC(=O)OC1CCC2C3CCC(=O)OC3C(C)(CCC(=O)O)CC12C (configuration not stated)     =      69.1
4       O=CN/N=C/c1ccc(Cl)c([N+](=O)[O-])c1     =      15.4
5  CCOc1ccc2nc(NC(=O)C(=O)C(C#N)CC(C)(C)C=O)sc2c1 (configuration not stated)     >       100
6  O=[N+]([O-])c1ccc(-c2noc(-c3ccccc3)c2C2=NCCN2)cc1     >       100

---

System: A549 NSCLC
Experiment: NCI tumour cell line growth inhibition, 48 h; in the data active = GI50 below about 0.43 µM; inactive = the rest
Classes used: active, inactive

compound	label-value
O=C(N/N=C/c1c(Cl)cccc1Cl)c1cccnc1Nc1cccc(C(F)(F)F)c1	inactive
C=C1C(=O)O[C@H]2[C@H]1CC/C(COC(=O)CCSSCCC(=O)OC/C1=C/CC[C@@]3(C)O[C@H]3[C@H]3OC(=O)C(=C)[C@@H]3CC1)=C\CC[C@@]1(C)O[C@@H]21	inactive
O=c1ccc2nc(C(F)(F)F)nn(-c3ccccc3)c-2c1	inactive
ClCCn1cnc2c(SCc3ccccc3Cl)ncnc21	active
CC(=O)N1CCC(Nc2cc(C(=O)NC[C@H](O)CN3CCc4ccccc4C3)ncn2)CC1	inactive
CCCN(CCC)c1ccc(CO)c(Cl)c1	inactive
CC(C)=CC(=O)OC1C(CO)OC(Oc2cc(O)c3c(=O)cc(-c4ccc(O)c(O)c4)oc3c2)C(OC2OC(C)C(O)C(O)C2O)C1O (centres undefined)	inactive
COc1ccc2c(c1)NC(=O)CN2c1nc(NC2CC2)nc2ccccc12	active
COc1cc(-c2csc(NC(=O)Nc3ccc(Cl)c(C(F)(F)F)c3)n2)cc(OC)c1OC	inactive

---

Test system: SNB-19 CNS
Experiment: NCI tumour cell line growth inhibition, 48 h

compound	TGI
Cc1cc(N(CCNc2ccnc3cc(Cl)ccc23)Cc2cccs2)nc(Cl)n1	5.62 µM
Cc1nc2sccn2c1C(=O)N/N=C1\SCC(=O)N1C	> 100 µM
S=C1N=C2C(=N1)n1c3c(c4ccccc41)CCCC23 (stereo unspecified)	> 100 µM
CC(=N\O)/C(C)=N/O.CC(=N\O)/C(C)=N/O.CC(=N\O)/C(C)=N/O.CC(=N\O)/C(C)=N/O.[CH3-].[CH3-].[Co].[Co]	> 100 µM
CC(=O)OC1Oc2ccccc2-c2oc(=O)c(-c3ccc(F)cc3)cc21 (stereo unspecified)	> 100 µM
CCOC(=O)/C=C1/SC(N2CCCCC2)C(=O)N1CC (stereo unspecified)	> 100 µM
CCCNC(=S)N=Nc1c(O)[nH]c2ccccc12	> 100 µM
COc1ccc2nc3cccc([N+](=O)[O-])c3c(NCCNCCO)c2c1	0.636 µM
CCCCCCCCCCn1cccc1/C=C/c1ccc(/C=C/c2cccn2CCCCCCCCCC)cc1	> 100 µM
O=C1C(Cl)N(c2ccc(Cl)cc2Cl)C1c1c[nH]c2ccccc12 (stereo unspecified)	> 100 µM
C/C(=N/OC(=O)c1cccc2c(=O)c3ccccc3[nH]c12)[C@H]1CC[C@H]2[C@@H]3CCC4=C/C(=N/OC(=O)c5cccc6c(=O)c7ccccc7[nH]c56)CC[C@]4(C)[C@H]3CC[C@]12C	39.4 µM
COc1ccc2c(c1)NC(=O)CN2c1nc(NC2CC2)nc2ccccc12	24.5 µM
Cc1ccc(S(=O)(=O)NC(C(=O)O)C(C)C)cc1 (stereo unspecified)	> 100 µM
N#Cc1c(Br)n(C2OC(CO)C(O)C2O)c2ncn3ccnc3c12 (stereo unspecified)	> 100 µM
Cc1nn(C(=O)c2ccccc2O)c2c1C(c1ccco1)SC(N)=N2 (stereo unspecified)	> 10 µM
NCCCN1CCN(c2ccccc2)CC1	> 100 µM
CC(C)OC(=O)c1cc(NS(=O)(=O)c2ccc3ccccc3c2)cc(C(=O)OC(C)C)c1	> 100 µM
CC1=NN(C(=O)CC(=O)Nc2ccccc2)C(=O)C1N=Nc1ccc(C(=O)O)cc1 (stereo unspecified)	> 100 µM
CC1=C2C(=O)c3ccccc3C(=O)[C@H]2C[C@@H](N2CCCC2=O)O1	> 100 µM
Cc1ccc(S(=O)(=O)N(CCN2C(=O)c3ccccc3C2=O)c2cc3c4c(c2)Oc2cc(N(CCN5C(=O)c6ccccc6C5=O)S(=O)(=O)c5ccc(C)cc5)cc5c2C4(C)c2c(cc(N(CCN4C(=O)c6ccccc6C4=O)S(=O)(=O)c4ccc(C)cc4)cc2O5)O3)cc1	> 100 µM
C=C1CCc2ccccc2C1=O	> 100 µM
